Hello, the source for this data is ChEMBL document CHEMBL1134146, in case you need it.

- ASSAY NOTES: Selectivity index determined for CC50 (test I) to EC50 x 10e3
- Assay type: functional
RESULT TYPE: SI

Examples from the recorded data:
Exercise: Can you look up the measured SI of `NCCCC[C@@H]1NC(=O)[C@@H](CCCCN)NC(=O)[C@H](CCCN=C(N)N)NC(=O)[C@@H](Cc2ccc(O)cc2)NC(=O)[C@H](NC(=O)[C@@H](NC(=O)[C@H](CCCN=C(N)N)NC(=O)[C@@H](N)CCCNC(N)=O)c2ccc3ccccc3c2)CSSC[C@H](C(=O)N[C@@H](CCCN=C(N)N)C(=O)O)NC(=O)[C@H](CCCNC(N)=O)NC(=O)[C@H](CCCNC(N)=O)NC(=O)[C@H](Cc2ccc(O)cc2)NC(=O)[C@H]2CCCN2C1=O` for me?
Key: > 1.5

Exercise: Also need `NCCCC[C@@H]1NC(=O)[C@@H](CCCCN)NC(=O)[C@H](CCCNC(N)=O)NC(=O)[C@@H](Cc2ccc(O)cc2)NC(=O)[C@H](NC(=O)[C@@H](NC(=O)[C@H](CCCN=C(N)N)NC(=O)[C@@H](N)CCCN=C(N)N)c2ccc3ccccc3c2)CSSC[C@H](C(=O)N[C@@H](CCCN=C(N)N)C(=O)O)NC(=O)[C@H](CCCNC(N)=O)NC(=O)[C@H](CCCN=C(N)N)NC(=O)[C@H](Cc2ccc(O)cc2)NC(=O)[C@H]2CCCN2C1=O` , thanks.
Key: > 29

Exercise: Also need `NCCCC[C@H]1NC(=O)[C@H](CCCNC(N)=O)NC(=O)[C@@H](Cc2ccc(O)cc2)NC(=O)[C@H](NC(=O)[C@@H](NC(=O)[C@H](CCCN=C(N)N)NC(=O)[C@@H](N)CCCN=C(N)N)c2ccc3ccccc3c2)CSSC[C@H](C(=O)N[C@@H](CCCN=C(N)N)C(N)=O)NC(=O)[C@H](CCCNC(N)=O)NC(=O)[C@H](CCCN=C(N)N)NC(=O)[C@H](Cc2ccc(O)cc2)NC(=O)[C@H]2CCCN2C(=O)[C@H](CCCNC(N)=O)NC1=O` , thanks.
Key: > 250

Exercise: Also need `NCCCC[C@@H]1NC(=O)[C@@H](CCCCN)NC(=O)[C@H](CCCNC(N)=O)NC(=O)[C@@H](Cc2ccc(O)cc2)NC(=O)[C@H](NC(=O)[C@@H](NC(=O)[C@H](CCCN=C(N)N)NC(=O)[C@@H](N)CCCN=C(N)N)c2ccc3ccccc3c2)CSSC[C@H](C(=O)N[C@@H](CCCN=C(N)N)C(N)=O)NC(=O)[C@H](CCCNC(N)=O)NC(=O)[C@H](CCCN=C(N)N)NC(=O)[C@H](Cc2ccc(O)cc2)NC(=O)[C@H]2CCCN2C1=O` , thanks.
Key: > 170

Exercise: Also need `NCCCC[C@@H]1NC(=O)[C@@H](CCCCN)NC(=O)[C@H](CCCN=C(N)N)NC(=O)[C@@H](Cc2ccc(O)cc2)NC(=O)[C@H](NC(=O)[C@@H](NC(=O)[C@H](CCCN=C(N)N)NC(=O)[C@@H](N)CCCNC(N)=O)c2ccc3ccccc3c2)CSSC[C@H](C(=O)N[C@@H](CCCN=C(N)N)C(N)=O)NC(=O)[C@H](CCCNC(N)=O)NC(=O)[C@H](CCCNC(N)=O)NC(=O)[C@H](Cc2ccc(O)cc2)NC(=O)[C@H]2CCCN2C1=O` , thanks.
Key: > 2.5

Exercise: Also need `NCCCC[C@H]1NC(=O)[C@H](CCCNC(N)=O)NC(=O)[C@@H](Cc2ccc(O)cc2)NC(=O)[C@H](NC(=O)[C@@H](NC(=O)[C@H](CCCN=C(N)N)NC(=O)[C@@H](N)CCCN=C(N)N)c2ccc3ccccc3c2)CSSC[C@H](C(=O)N[C@@H](CCCN=C(N)N)C(=O)O)NC(=O)[C@H](CCCNC(N)=O)NC(=O)[C@H](CCCN=C(N)N)NC(=O)[C@H](Cc2ccc(O)cc2)NC(=O)[C@H]2CCCN2C(=O)[C@H](CCCNC(N)=O)NC1=O` , thanks.
Key: > 200

Exercise: Also need `NCCCC[C@@H]1NC(=O)[C@@H](CCCCN)NC(=O)[C@H](CCCN=C(N)N)NC(=O)[C@@H](Cc2ccc(O)cc2)NC(=O)[C@H](NC(=O)[C@@H](NC(=O)[C@H](CCCN=C(N)N)NC(=O)[C@@H](N)CCCN=C(N)N)c2ccc3ccccc3c2)CSSC[C@H](C(=O)N[C@@H](CCCN=C(N)N)C(N)=O)NC(=O)[C@H](CCCNC(N)=O)NC(=O)[C@H](CCCN=C(N)N)NC(=O)[C@H](Cc2ccc(O)cc2)NC(=O)[C@H]2CCCN2C1=O` , thanks.
Key: 0.14

Exercise: Also need `Nc1ccn([C@H]2CC[C@@H](CO)O2)c(=O)n1` , thanks.
Key: 0.16

---
Exercise: Can you look up the measured SI of `NCCCC[C@@H]1NC(=O)[C@@H](CCCCN)NC(=O)[C@H](CCCNC(N)=O)NC(=O)[C@@H](Cc2ccc(O)cc2)NC(=O)[C@H](NC(=O)[C@@H](NC(=O)[C@H](CCCN=C(N)N)NC(=O)[C@@H](N)CCCN=C(N)N)c2ccc3ccccc3c2)CSSC[C@H](C(=O)N[C@@H](CCCN=C(N)N)C(=O)O)NC(=O)[C@H](CCCNC(N)=O)NC(=O)[C@H](CCCNC(N)=O)NC(=O)[C@H](Cc2ccc(O)cc2)NC(=O)[C@H]2CCCN2C1=O` for me?
Key: > 11

Exercise: Also need `NCCCC[C@H]1NC(=O)[C@H](CCCN=C(N)N)NC(=O)[C@@H](Cc2ccc(O)cc2)NC(=O)[C@H](NC(=O)[C@@H](NC(=O)[C@H](CCCN=C(N)N)NC(=O)[C@@H](N)CCCNC(N)=O)c2ccc3ccccc3c2)CSSC[C@H](C(=O)N[C@@H](CCCN=C(N)N)C(=O)O)NC(=O)[C@H](CCCNC(N)=O)NC(=O)[C@H](CCCN=C(N)N)NC(=O)[C@H](Cc2ccc(O)cc2)NC(=O)[C@H]2CCCN2C(=O)[C@H](CCCNC(N)=O)NC1=O` , thanks.
Key: > 2.8

###

We begin with a simple list: items and their reported SI.
- ASSAY NOTES: Selectivity index determined for CC50 (test I) to EC50 x 10e3
- Assay type: functional

Examples from the recorded data:
Exercise: Can you look up the measured SI of `NCCCC[C@H]1NC(=O)[C@H](CCCN=C(N)N)NC(=O)[C@@H](Cc2ccc(O)cc2)NC(=O)[C@H](NC(=O)[C@@H](NC(=O)[C@H](CCCN=C(N)N)NC(=O)[C@@H](N)CCCN=C(N)N)c2ccc3ccccc3c2)CSSC[C@H](C(=O)N[C@@H](CCCN=C(N)N)C(N)=O)NC(=O)[C@H](CCCNC(N)=O)NC(=O)[C@H](CCCNC(N)=O)NC(=O)[C@H](Cc2ccc(O)cc2)NC(=O)[C@H]2CCCN2C(=O)[C@H](CCCNC(N)=O)NC1=O` for me?
Key: > 37

Exercise: Also need `Cc1cn([C@H]2C[C@H](N=[N+]=[N-])[C@@H](CO)O2)c(=O)[nH]c1=O` , thanks.
Key: 1.5

Exercise: Also need `NCCCC[C@@H]1NC(=O)[C@@H](CCCCN)NC(=O)[C@H](CCCNC(N)=O)NC(=O)[C@@H](Cc2ccc(O)cc2)NC(=O)[C@H](NC(=O)[C@@H](NC(=O)[C@H](CCCN=C(N)N)NC(=O)[C@@H](N)CCCNC(N)=O)c2ccc3ccccc3c2)CSSC[C@H](C(=O)N[C@@H](CCCN=C(N)N)C(=O)O)NC(=O)[C@H](CCCNC(N)=O)NC(=O)[C@H](CCCN=C(N)N)NC(=O)[C@H](Cc2ccc(O)cc2)NC(=O)[C@H]2CCCN2C1=O` , thanks.
Key: > 2.7

Let us move to another entry and its SI.
Exercise: Can you look up the measured SI of `NCCCC[C@@H]1NC(=O)[C@@H](CCCCN)NC(=O)[C@H](CCCNC(N)=O)NC(=O)[C@@H](Cc2ccc(O)cc2)NC(=O)[C@H](NC(=O)[C@@H](NC(=O)[C@H](CCCN=C(N)N)NC(=O)[C@@H](N)CCCNC(N)=O)c2ccc3ccccc3c2)CSSC[C@H](C(=O)N[C@@H](CCCN=C(N)N)C(N)=O)NC(=O)[C@H](CCCNC(N)=O)NC(=O)[C@H](CCCN=C(N)N)NC(=O)[C@H](Cc2ccc(O)cc2)NC(=O)[C@H]2CCCN2C1=O` for me?
Key: > 15

###

- ASSAY NOTES: Selectivity index determined for CC50 (test II) to EC50 x 10e3
- Assay type: functional
RESULT TYPE: SI
# respond with the number and nothing more

Exercise: Can you look up the measured SI of `NCCCC[C@@H]1NC(=O)[C@@H](CCCCN)NC(=O)[C@H](CCCNC(N)=O)NC(=O)[C@@H](Cc2ccc(O)cc2)NC(=O)[C@H](NC(=O)[C@@H](NC(=O)[C@H](CCCN=C(N)N)NC(=O)[C@@H](N)CCCNC(N)=O)c2ccc3ccccc3c2)CSSC[C@H](C(=O)N[C@@H](CCCN=C(N)N)C(=O)O)NC(=O)[C@H](CCCNC(N)=O)NC(=O)[C@H](CCCN=C(N)N)NC(=O)[C@H](Cc2ccc(O)cc2)NC(=O)[C@H]2CCCN2C1=O` for me?
Key: 22

---
Exercise: Can you look up the measured SI of `NCCCC[C@H]1NC(=O)[C@H](CCCN=C(N)N)NC(=O)[C@@H](Cc2ccc(O)cc2)NC(=O)[C@H](NC(=O)[C@@H](NC(=O)[C@H](CCCN=C(N)N)NC(=O)[C@@H](N)CCCN=C(N)N)c2ccc3ccccc3c2)CSSC[C@H](C(=O)N[C@@H](CCCN=C(N)N)C(=O)O)NC(=O)[C@H](CCCNC(N)=O)NC(=O)[C@H](CCCN=C(N)N)NC(=O)[C@H](Cc2ccc(O)cc2)NC(=O)[C@H]2CCCN2C(=O)[C@H](CCCNC(N)=O)NC1=O` for me?
Key: 28

Exercise: Also need `NCCCC[C@H]1NC(=O)[C@H](CCCN=C(N)N)NC(=O)[C@@H](Cc2ccc(O)cc2)NC(=O)[C@H](NC(=O)[C@@H](NC(=O)[C@H](CCCN=C(N)N)NC(=O)[C@@H](N)CCCN=C(N)N)c2ccc3ccccc3c2)CSSC[C@H](C(=O)N[C@@H](CCCN=C(N)N)C(N)=O)NC(=O)[C@H](CCCNC(N)=O)NC(=O)[C@H](CCCN=C(N)N)NC(=O)[C@H](Cc2ccc(O)cc2)NC(=O)[C@H]2CCCN2C(=O)[C@H](CCCNC(N)=O)NC1=O` , thanks.
Key: 21
